targetOrTestSystem: UniProt P23945
Sequence (P23945 18-695): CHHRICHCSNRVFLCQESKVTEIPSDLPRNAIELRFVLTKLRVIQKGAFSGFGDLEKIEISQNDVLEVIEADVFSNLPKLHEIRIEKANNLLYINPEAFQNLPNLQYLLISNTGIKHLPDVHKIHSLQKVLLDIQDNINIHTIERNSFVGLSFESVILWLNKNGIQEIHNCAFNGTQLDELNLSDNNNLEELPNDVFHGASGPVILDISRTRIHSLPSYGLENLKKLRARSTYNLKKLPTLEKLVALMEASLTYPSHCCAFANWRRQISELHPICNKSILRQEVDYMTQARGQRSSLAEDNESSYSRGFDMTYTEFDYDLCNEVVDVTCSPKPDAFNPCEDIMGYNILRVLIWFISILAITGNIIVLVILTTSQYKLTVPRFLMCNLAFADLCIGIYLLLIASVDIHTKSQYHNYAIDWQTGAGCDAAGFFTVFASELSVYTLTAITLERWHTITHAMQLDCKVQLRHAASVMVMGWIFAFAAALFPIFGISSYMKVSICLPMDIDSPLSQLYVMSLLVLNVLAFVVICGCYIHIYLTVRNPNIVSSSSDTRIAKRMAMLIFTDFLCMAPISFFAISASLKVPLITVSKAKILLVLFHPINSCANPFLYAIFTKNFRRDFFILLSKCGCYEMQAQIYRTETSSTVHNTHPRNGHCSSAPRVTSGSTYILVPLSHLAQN
experimentDescription: EC50 of cyclic AMP production in CHO FSHR cells + EC20 FSH (Assay A)
conditionDetails: CHO-FSHR-LUC cells, in presence of EC20 FSH, cAMP HTRF, 1 h 37° C.
testReadout: EC50

Reference set, count: 3
Report EC50 for COc1cc2c(cc1OC(C)C)-n1c(-c3ccc(F)c(C#N)c3)nc(C(=O)N3CCOCC3(C)C)c1CC2 [Compound 107] > 5 µM

Report EC50 for COc1cccc(-c2nc(C(=O)N3CCOCC3(C)C)c3n2-c2cc(OC(C)C)c(OC)cc2CC3)c1 [Compound 115] 0.1 to 1 µM

Report EC50 for COc1cc2c(cc1OC(C)C)-n1c(-c3cc(C(F)(F)F)cc(C(F)(F)F)c3)nc(C(=O)N3CCOCC3(C)C)c1CC2 [Compound 119] 0.1 to 1 µM

Now consider a different molecule.
Report EC50 for COc1cc2c(cc1CC(C)C)-n1c(-c3cccs3)nc(C(=O)N(C)C(C)(C)C)c1CC2 [Compound 17] < 0.1 µM

----------
targetOrTestSystem: FSHR (Homo sapiens, UniProt P23945)
experimentDescription: EC50 of cyclic AMP production in CHO FSHR cells + EC20 FSH (Assay A)
conditionDetails: CHO-FSHR-LUC cells, in presence of EC20 FSH, cAMP HTRF, 1 h 37° C.
Reported EC50 values follow for various compounds

Report EC50 for COC(=O)c1nc(C(=O)N(C)C(C)(C)C)c2n1-c1cc(OC(C)C)c(OC)cc1CC2 1000 to 5000 nM

Report EC50 for COc1cc2c(cc1-c1n[nH]c(=O)o1)-n1c(-c3cccs3)nc(C(=O)N(C)C(C)(C)C)c1CC2 100 to 1000 nM

Report EC50 for COc1cc(-c2nc(C(=O)N3CCOCC3(C)C)c3n2-c2cc(OC(C)C)c(OC)cc2CC3)ccc1F 1000 to 5000 nM

Now consider a different compound.
Report EC50 for COc1cc2c(cc1OC(C)C)-n1c(Br)nc(C(=O)N3CCCN(C(=O)C4CCC4)CC3)c1CC2 < 100 nM
